In this section we review reported TGI values for a set of molecules.
System: SF-539 CNS
Assay Explanation: NCI tumour cell line growth inhibition, 48 h

COc1cccc(N(CN2CC=CC2=O)C(C)=O)c1 : > 100 µM

Qu. Which TGI reading was recorded for the molecule COC(=O)n1c(=O)n(-c2ccccc2)c(=O)n1C(=O)OC ?
Ans. > 100 µM

Qu. Try this molecule too: COc1ccc(Cl)cc1NC(=O)C(Br)C(Br)C(=O)O (stereo not given)
Ans. 25.4 µM

Qu. Also, O=c1[nH]nc(-c2ccccc2)n1/N=C/c1c(O)ccc2ccccc12 please.
Ans. > 100 µM

Qu. Now consider CC(C)c1ccc(/C=C2\CSCC3=C2NC(=S)NC3c2ccc(C(C)C)cc2)cc1 (stereo not given) .
Ans. > 100 µM

----------
Tested on: MDA-MB-231 breast
Assay Explanation: NCI tumour cell line growth inhibition, 48 h
Rule: TGI of 4 µM or more gives T; anything lower gives F.

Qu. Exam item: decide whether the reported TGI for C=C1C(=O)O[C@H]2[C@H]1CC/C(COC(=O)CSCC(=O)OC/C1=C/CC[C@@]3(C)O[C@H]3[C@H]3OC(=O)C(=C)[C@@H]3CC1)=C\CC[C@@]1(C)O[C@@H]21 is at least 4 µM.
Ans. F

Qu. Record: COc1ccc(/C=C/C(=O)Oc2cc(O)cc(O)c2)cc1
Ans. T

Qu. Can you handle Cc1cc(=O)oc2cc(OCc3c(F)cccc3Cl)ccc12 next?
Ans. T

----------
The compounds listed here are annotated with their TGI.
System: HCC-2998 colon
Assay Explanation: NCI tumour cell line growth inhibition, 48 h
# number only, unit µM dropped from output

Study these solved cases before continuing.
O=C(O)c1cc2cc(OCc3ccccc3)c(OCc3ccccc3)cc2[nH]1 : 34.7
c1ccc(-n2nnnc2-c2cccc3ccccc23)cc1 : 10.3

Qu. Given the entry CC(=O)OC1CC2(O)C3CCC4CC(O)CCC4(C)C3CCC2(C)C1C1=CC(=O)OC1 (centres undefined) , what TGI was observed with HCC-2998 colon?
Ans. 0.39

----------
System: RPMI-8226 leukemia
Assay Explanation: NCI tumour cell line growth inhibition, 48 h
Where a SMILES comes first, the peptide text is derived from it. The star is where a group is joined. Boc = CC(C)(C)OC(=O)*; OBn = c1ccc(CO*)cc1
Examples of compounds with documented TGI follow.

In the examples that follow, each entry is paired with its recorded TGI.
O=C(C(=O)N1CC2C=CC1CC2)c1c[nH]c2ccccc12 (stereo not given) : > 100 µM
CC(NC(=O)C(NC(=O)OC(C)(C)C)C(C)C)C(=O)N1CCCC1C(=O)NCC(=O)NC(C(=O)NCC(=O)OCc1ccccc1)C(C)C (stereo not given) (Boc-VAPGVG-OBn; configuration not given here) : > 100 µM
O=C(Nc1ccc(Cl)cc1)c1cc(-c2ccc(Cl)cc2)c2sc(=O)[nH]c2n1 : 14.2 µM
Cc1ccc(C(C2C(=O)N(C)C(=O)N(C)C2=O)C(F)(F)C(=O)N(C)C)cc1 (stereo not given) : > 100 µM

--- query ---
Qu. // query TGI value for entry Cc1cc(NS(=O)(=O)c2ccc(NC(=O)c3cccc4c(Nc5ccc(S(=O)(=O)N=C(N)N)cc5)c5ccccc5nc34)cc2)no1
Ans. > 100 µM
